- tested-system: Pim3 kinase (Homo sapiens, UniProt Q86V86)
- experimental-protocol: Pim3 ATP depletion assay
- Type: biochemical
- reported-conditions: read-out: IC50 (μM) PIM3
reported-endpoint: IC50

molecule	IC50
CNC(=O)c1ccc(F)c(-c2ccc(N)c(C(=O)Nc3cnccc3N3CCC[C@H](N)C3)n2)c1	< 1 µM

## Task Given the molecule CC(=O)c1ccc(N2CCCC(N)C2)c(NC(=O)c2nccnc2N)c1 (centres unmarked) , what is its reported IC50?
## Result < 1 µM

## Task Cool, now NC(=O)c1cccc(-c2cnc(N)c(C(=O)Nc3ccccc3N3CCC(N)CC3)n2)c1
## Result < 1 µM

## Task What do you get for Nc1ccc(-c2ccccc2F)nc1C(=O)Nc1cnccc1N1C[C@H](N)C[C@H](N)C1 ?
## Result < 1 µM

## Task Same question, Nc1nccnc1C(=O)Nc1[nH]c(=O)ncc1N1CCC(C(F)(F)F)CC1 this time
## Result < 1 µM

## Task Also need Nc1ccc(C2CCCCC2)nc1C(=O)Nc1cnccc1N1C[C@@H](N)C[C@@H](F)C1 , thanks.
## Result < 1 µM

###

- tested-system: human full length PKCE enzyme (Homo sapiens, UniProt Q02156)
- Sequence (Q02156 1-737): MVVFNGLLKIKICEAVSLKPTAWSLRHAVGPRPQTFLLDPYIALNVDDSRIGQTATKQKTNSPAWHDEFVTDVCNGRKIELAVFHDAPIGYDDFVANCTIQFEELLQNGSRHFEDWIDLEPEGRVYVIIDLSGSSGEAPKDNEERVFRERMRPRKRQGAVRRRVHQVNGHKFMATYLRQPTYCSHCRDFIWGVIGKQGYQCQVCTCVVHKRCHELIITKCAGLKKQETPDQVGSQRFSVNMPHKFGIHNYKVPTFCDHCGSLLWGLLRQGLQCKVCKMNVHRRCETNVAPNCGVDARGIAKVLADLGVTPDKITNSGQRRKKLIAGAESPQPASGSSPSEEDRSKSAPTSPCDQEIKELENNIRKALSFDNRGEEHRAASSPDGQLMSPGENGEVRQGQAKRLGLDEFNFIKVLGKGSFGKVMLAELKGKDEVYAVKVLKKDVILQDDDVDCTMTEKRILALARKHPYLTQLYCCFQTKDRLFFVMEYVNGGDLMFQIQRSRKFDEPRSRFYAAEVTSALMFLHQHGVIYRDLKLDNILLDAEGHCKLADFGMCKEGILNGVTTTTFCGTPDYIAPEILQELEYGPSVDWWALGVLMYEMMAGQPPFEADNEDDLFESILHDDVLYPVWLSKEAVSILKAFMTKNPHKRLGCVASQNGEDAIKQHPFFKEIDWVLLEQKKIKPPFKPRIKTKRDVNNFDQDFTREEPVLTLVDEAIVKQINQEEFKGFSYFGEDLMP
reported-endpoint: IC50

Examples with their reported IC50 follow.
compound	tested-system	reported-endpoint	result
NCCC(=O)N1CCN(c2ccncc2NC(=O)c2nc(Cl)c(N)nc2N)CC1 [Example 185]	human full length PKCE enzyme (Homo sapiens, UniProt Q02156)	IC50	1000 to 10000 nM
Nc1ccc(-c2cccc(F)c2F)nc1C(=O)Nc1cnccc1N1CCC[C@H](N)C1 [Example 424]	human full length PKCE enzyme (Homo sapiens, UniProt Q02156)	IC50	1000 to 10000 nM
NCC(=O)N1CCN(c2ccncc2NC(=O)c2nc(Cl)c(N)nc2N)CC1 [Example 186]	human full length PKCE enzyme (Homo sapiens, UniProt Q02156)	IC50	1000 to 10000 nM

## Task Give human full length PKCE enzyme (Homo sapiens, UniProt Q02156) IC50 for Nc1ncc(Br)nc1C(=O)Nc1[nH]c(=O)ncc1-c1cccs1 [Example 142]
## Result 1000 to 10000 nM

## Task Proceed to Nc1ncc(-c2cccc3ccccc23)nc1C(=O)Nc1ccccc1N1CCNCC1 [Example 389]
## Result < 1000 nM

###

- tested-system: Pim2 kinase (Homo sapiens)
- Sequence (Q9P1W9 whole entry): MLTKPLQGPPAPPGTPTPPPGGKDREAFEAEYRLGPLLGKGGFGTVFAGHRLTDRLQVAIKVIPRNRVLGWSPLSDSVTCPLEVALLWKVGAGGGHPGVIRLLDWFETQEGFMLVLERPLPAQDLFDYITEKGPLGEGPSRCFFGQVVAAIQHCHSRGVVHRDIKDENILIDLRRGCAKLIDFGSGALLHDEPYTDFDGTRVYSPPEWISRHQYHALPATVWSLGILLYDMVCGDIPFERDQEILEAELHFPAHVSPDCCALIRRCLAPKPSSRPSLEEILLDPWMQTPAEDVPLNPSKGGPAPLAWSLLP
- experimental-protocol: Pim2 ATP depletion assay;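 note: Luciferase-based luminescent readout of ATP remaining after PIM2 phosphorylates a BAD peptide, final 5 nM enzyme, 4 µM ATP, 10 µM peptide, 2.5% DMSO, run to roughly half ATP consumption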
- Assay type: biochemical
- reported-conditions: read-out: IC50 (μM) PIM2
reported-endpoint: IC50

Would you please look over these solved cases?
compound	result
Cc1nc(N)cc(-c2ccncc2NC(=O)c2nc(-c3ccccc3)ncc2N)n1	< 1 µM
COc1ccccc1-c1ccc(N)c(C(=O)Nc2cnccc2N2CCC[C@H](N)C2)n1	< 1 µM
COc1cncc(-c2cnc(N)c(C(=O)Nc3cnccc3N3CCC(N)CC3)n2)n1	1 to 10 µM
NC1CC(C(F)(F)F)CN(c2ccncc2NC(=O)c2ccc(F)c(-c3ccccc3F)n2)C1 (stereo not drawn)	< 1 µM
Nc1nccnc1C(=O)Nc1[nH]c(=O)ncc1N1CCCC(N)C1 (stereo not drawn)	< 1 µM

## Task Looking for the measured IC50 of Nc1nc(N)c(-c2ccccc2C(F)(F)F)nc1C(=O)Nc1cnccc1N1CCCC(N)C1 (stereo not drawn) , can you help?
## Result < 1 µM

## Task Can you handle Nc1ccc(-c2cccc(S(N)(=O)=O)c2)nc1C(=O)Nc1cnccc1N1CCC[C@H](N)C1 next?
## Result < 1 µM

## Task Thanks! And Nc1ccc(-c2ccncc2Cl)nc1C(=O)Nc1cnccc1N1CCC[C@H](N)C1 ?
## Result < 1 µM

## Task Subsequent entry: Cc1cccc(-c2cnc(N)c(C(=O)Nc3ccccc3N3CCNCC3)n2)c1
## Result 1 to 10 µM

## Task What would you report for Nc1nccnc1C(=O)Nc1[nH]c(=O)ncc1N1CCCCC1 ?
## Result < 1 µM

## Task Please answer likewise for Nc1nc(N)c(C(=O)Nc2[nH]c(=O)ncc2N2CCCC(F)C2)nc1Cl (stereo not drawn)
## Result < 1 µM

## Task Next record, please: Nc1ncc(Br)nc1C(=O)Nc1[nH]c(=O)ncc1-c1nccs1
## Result < 1 µM

## Task Same read-out for NC1CCCN(c2ccncc2NC(=O)c2cnccn2)C1 (stereo not drawn) ?
## Result > 25 µM

## Task Next up: Nc1ccc(-c2cccnc2)nc1C(=O)Nc1cnccc1N1CCC[C@H](N)C1
## Result < 1 µM

## Task # iterate: Cc1ccc(N2CCC(N)CC2)c(NC(=O)c2nccnc2N)c1
## Result > 25 µM

## Task What do you have for Cc1cccc(C)c1-c1ccc(N)c(C(=O)Nc2cnccc2N2CCC[C@H](N)C2)n1 ?
## Result < 1 µM

## Task Would you mind doing CCOc1ccc(F)c(-c2ccc(N)c(C(=O)Nc3cnccc3N3CCC[C@H](N)C3)n2)c1F as well?
## Result < 1 µM

## Task Lookup Nc1nccnc1C(=O)Nc1ccncc1N1CCCC(N)C1 (stereo not drawn)
## Result < 1 µM

###

- tested-system: KDR kinase (Homo sapiens)
- Sequence (P35968 20-1356): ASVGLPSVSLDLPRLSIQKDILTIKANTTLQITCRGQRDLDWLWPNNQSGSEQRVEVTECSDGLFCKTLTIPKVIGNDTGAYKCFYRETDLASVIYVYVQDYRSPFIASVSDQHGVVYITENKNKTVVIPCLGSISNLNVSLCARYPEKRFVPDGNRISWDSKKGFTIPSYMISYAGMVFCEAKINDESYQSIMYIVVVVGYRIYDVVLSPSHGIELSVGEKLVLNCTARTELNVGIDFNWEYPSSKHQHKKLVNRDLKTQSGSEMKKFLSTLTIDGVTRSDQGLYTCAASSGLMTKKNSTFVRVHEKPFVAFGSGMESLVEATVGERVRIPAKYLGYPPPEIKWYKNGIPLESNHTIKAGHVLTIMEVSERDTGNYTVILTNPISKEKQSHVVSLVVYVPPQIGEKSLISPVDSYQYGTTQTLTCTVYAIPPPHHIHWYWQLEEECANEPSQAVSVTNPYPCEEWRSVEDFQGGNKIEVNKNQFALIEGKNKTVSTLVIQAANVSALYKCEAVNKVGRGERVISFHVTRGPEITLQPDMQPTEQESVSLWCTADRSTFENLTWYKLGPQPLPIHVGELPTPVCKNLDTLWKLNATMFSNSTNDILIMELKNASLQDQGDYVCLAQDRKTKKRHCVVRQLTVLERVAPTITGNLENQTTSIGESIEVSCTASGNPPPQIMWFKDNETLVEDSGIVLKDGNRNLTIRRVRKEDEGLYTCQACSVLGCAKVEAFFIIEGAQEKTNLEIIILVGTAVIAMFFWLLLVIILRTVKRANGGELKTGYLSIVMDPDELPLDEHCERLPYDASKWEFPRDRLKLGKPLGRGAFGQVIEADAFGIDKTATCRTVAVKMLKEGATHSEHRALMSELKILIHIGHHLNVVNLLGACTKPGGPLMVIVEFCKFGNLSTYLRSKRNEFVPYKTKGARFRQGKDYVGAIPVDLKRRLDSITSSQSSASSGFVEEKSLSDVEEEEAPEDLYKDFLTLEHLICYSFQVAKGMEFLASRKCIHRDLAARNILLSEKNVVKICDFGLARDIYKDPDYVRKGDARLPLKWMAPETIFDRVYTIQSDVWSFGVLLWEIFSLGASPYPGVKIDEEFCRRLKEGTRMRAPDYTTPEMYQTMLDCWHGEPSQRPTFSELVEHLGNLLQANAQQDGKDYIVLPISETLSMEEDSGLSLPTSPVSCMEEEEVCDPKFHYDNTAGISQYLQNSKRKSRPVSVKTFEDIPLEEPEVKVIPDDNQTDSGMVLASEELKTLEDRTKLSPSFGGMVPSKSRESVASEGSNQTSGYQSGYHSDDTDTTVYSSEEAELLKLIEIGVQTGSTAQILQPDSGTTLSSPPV
- experimental-protocol: KDR AlphaScreen assay
- reported-conditions: KDR IC50 (μM)
Listed here: items and their measured IC50.

compound	result
Nc1ncc(-c2ccccc2F)nc1C(=O)Nc1cc(C(=O)c2ccccc2)ccc1N1CCC(N)CC1	1 to 10 µM
NCCC(=O)N1CCN(c2cnc(=O)[nH]c2NC(=O)c2nccnc2N)CC1	< 1 µM
COCCOc1nc(-c2ccc(N)c(C(=O)Nc3cnccc3N3CCC[C@H](N)C3)n2)cnc1N	1 to 10 µM
Nc1nccnc1C(=O)Nc1cccnc1N1CCCC(N)C1 (centres unmarked)	> 25 µM
Nc1nccnc1C(=O)Nc1ccccc1N1CCNCC1	> 25 µM

## Task Quick check: IC50 of Nc1ccc(-c2cncc(OCC3CC3)n2)nc1C(=O)Nc1cnccc1N1CCC[C@H](N)C1 ?
## Result 1 to 10 µM

## Task Cc1ccc(-c2ccc(N)c(C(=O)Nc3cnccc3N3CCC[C@H](N)C3)n2)c(F)c1 ?
## Result > 25 µM

## Task Try this compound next: CS(=O)(=O)c1cccc(-c2ccc(N)c(C(=O)Nc3cnccc3N3CCC[C@H](N)C3)n2)c1
## Result > 25 µM

###

- tested-system: UniProtKB Q86V86
- experimental-protocol: Pim3 ATP depletion assay
- Format: biochemical
- reported-conditions: read-out: IC50 (μM) PIM3
reported-endpoint: IC50

Recorded IC50, per entry:
compound	IC50
CCCOc1ccc(F)c(-c2ccc(N)c(C(=O)Nc3cnccc3N3CCC[C@H](N)C3)n2)c1 [Example 468]	< 1 µM
Nc1nccnc1C(=O)Nc1cc(C(=O)C2CC2)ccc1N1CCCC(N)C1 (stereo not drawn) [Example 243]	1 to 10 µM
NC1CCCN(c2ccncc2NC(=O)c2cnccn2)C1 (stereo not drawn) [Example 197]	> 25 µM

## Task Request the reported IC50 associated with Cc1ccc(NC(=O)c2nccnc2N)c(N2CCNCC2)c1 [Example 227]
## Result 1 to 10 µM

## Task Similarly, Nc1ncc(-c2ccccc2OC(F)(F)F)nc1C(=O)Nc1[nH]c(=O)ncc1N1CCCC(N)C1 (stereo not drawn) [Example 405] ?
## Result < 1 µM

## Task Likewise for NC(=O)c1ccc(N2CCCCC2)c(NC(=O)c2nc(Br)cnc2N)c1 [Example 133] ?
## Result < 1 µM

## Task Try this compound next: Nc1nccnc1C(=O)Nc1cc(C(=O)c2ccccc2)ccc1N1CCNCC1 [Example 232]
## Result 10 to 25 µM

## Task Next compound: CSc1nc(N)cc(-c2ccncc2NC(=O)c2nc(-c3cc(C(=O)NC(C)C)ccc3F)ccc2N)n1 [Example 534]
## Result < 1 µM

## Task Repeat with Nc1cc(Cl)c(-c2ccc(N)c(C(=O)Nc3cnccc3N3CCC[C@H](N)C3)n2)cn1 [Example 410]
## Result < 1 µM

## Task Query Cc1cnc(N)c(C(=O)Nc2ccccc2N2CCCC(N)C2)n1 (stereo not drawn) [Example 376] next
## Result < 1 µM

## Task Also need CN(C)C(=O)c1ccc(F)c(-c2ccc(N)c(C(=O)Nc3cnccc3N3CCC[C@H](N)C3)n2)c1 [Example 328] , thanks.
## Result < 1 µM

## Task Another compound: Nc1ccc(-c2ccncc2F)nc1C(=O)Nc1cnccc1N1CCC[C@H](N)C1 [Example 339]
## Result < 1 µM

## Task Same read-out for Nc1ncc(-c2ccccc2F)nc1C(=O)Nc1cnccc1N1CCCC(N)C1 (stereo not drawn) [Example 350] ?
## Result < 1 µM

## Task Same for Nc1nccnc1C(=O)Nc1cc(Cl)ccc1N1CCNCC1 [Example 213]
## Result 1 to 10 µM

## Task Quick one: CC(=O)c1ccc(N2CCC(N)CC2)c(NC(=O)c2nccnc2N)c1 [Example 220]
## Result < 1 µM

## Task Nc1nccnc1C(=O)Nc1cc(C(=O)C2CC2)ccc1N1CCNCC1 [Example 245] ?
## Result 10 to 25 µM

## Task Proceed to Nc1ccc(-c2c(F)cccc2F)nc1C(=O)Nc1cnccc1N1CC[C@H](F)[C@@H](N)C1 [Example 276]
## Result < 1 µM

## Task Same for Cc1cccc(C)c1-c1nc(C(=O)Nc2cnccc2N2CCC[C@H](N)C2)c(N)cc1F [Example 509]
## Result < 1 µM
